// reported Maximum cytokine response Murine per item
Tested on: RAW264.7 cells
protocol-description: Cytokine (TNFα) response of mouse macrophage cell line; Table 2 'Murine'
Type: cell-based
Design: unit not given here
measurement-parameters: NR = no response
Description: Compounds were also tested in a mouse macrophage cell line (FIG. 4B). RAW264.7 cells were subjected to increasing concentrations of the compounds and assessed for production of the cytokine TNFα.

# annotated cases, reported Maximum cytokine response Murine shown
# return recorded Maximum cytokine response Murine for entry O=C(OC[C@H]1O[C@H](O[C@H]2O[C@H](CO)[C@@H](O)[C@H](O)[C@H]2O)[C@H](O)[C@@H](O)[C@@H]1O)c1ccccc1C(F)(F)F [UM1121] 11

Quick one: give measured Maximum cytokine response Murine for O=C(OC[C@H]1O[C@H](O[C@H]2O[C@H](COC(=O)c3c(C(F)(F)F)cccc3C(F)(F)F)[C@@H](O)[C@H](O)[C@H]2O)[C@H](O)[C@@H](O)[C@@H]1O)c1c(C(F)(F)F)cccc1C(F)(F)F [UM1065] 2.5

Quick one: give measured Maximum cytokine response Murine for CCc1cc(CC)cc(C(=O)NC[C@H]2O[C@H](O[C@H]3O[C@H](CNC(=O)c4cc(CC)cc(CC)c4)[C@@H](O)[C@H](O)[C@H]3O)[C@H](O)[C@@H](O)[C@@H]2O)c1 [UM1109] 0.4

Dear colleague, please send me the reported Maximum cytokine response Murine for COc1cc(/C=C/C(=O)OC[C@H]2O[C@H](O[C@H]3O[C@H](COC(=O)/C=C/c4cc(OC)c(OC)c(OC)c4)[C@@H](O)[C@H](O)[C@H]3O)[C@H](O)[C@@H](O)[C@@H]2O)cc(OC)c1OC [UM1020] when you can. 3.2

Using the record for CC(C)(C)c1ccc(O)c(C(=O)NC[C@H]2O[C@H](O[C@H]3O[C@H](CNC(=O)c4cc(C(C)(C)C)ccc4O)[C@@H](O)[C@H](O)[C@H]3O)[C@H](O)[C@@H](O)[C@@H]2O)c1 [UM1106] , state its measured Maximum cytokine response Murine. 11

Identify the reported Maximum cytokine response Murine for the following entry. CCCCCCOc1cc(C(=O)OC[C@H]2O[C@H](O[C@H]3O[C@H](COC(=O)c4cc(OCCCCCC)c(OCCCCCC)c(OCCCCCC)c4)[C@@H](O)[C@H](O)[C@H]3O)[C@H](O)[C@@H](O)[C@@H]2O)cc(OCCCCCC)c1OCCCCCC [UM1097] 0.005

More entries:
Note Maximum cytokine response Murine for the compound shown: O=C(OC[C@H]1O[C@H](O[C@H]2O[C@H](COC(=O)c3ccc(C(F)(F)F)cc3C(F)(F)F)[C@@H](O)[C@H](O)[C@H]2O)[C@H](O)[C@@H](O)[C@@H]1O)c1ccc(C(F)(F)F)cc1C(F)(F)F [UM1084] 2.9

Please indicate Maximum cytokine response Murine recorded for CCCCCOc1cc(OCCCCC)cc(C(=O)NC[C@H]2O[C@H](O[C@H]3O[C@H](CNC(=O)c4cc(OCCCCC)cc(OCCCCC)c4)[C@@H](O)[C@H](O)[C@H]3O)[C@H](O)[C@@H](O)[C@@H]2O)c1 [UM1111] 0.13

Quote Maximum cytokine response Murine reported for COc1ccc(C(F)(F)F)cc1C(=O)OC[C@H]1O[C@H](O[C@H]2O[C@H](COC(=O)c3cc(C(F)(F)F)ccc3OC)[C@@H](O)[C@H](O)[C@H]2O)[C@H](O)[C@@H](O)[C@@H]1O [UM1045] please. 1.3

Item CC(C)(C)c1cc(C(=O)OC[C@H]2O[C@H](O[C@H]3O[C@H](COC(=O)c4cc(C(C)(C)C)c(O)c(C(C)(C)C)c4)[C@@H](O)[C@H](O)[C@H]3O)[C@H](O)[C@@H](O)[C@@H]2O)cc(C(C)(C)C)c1O [UM1087] : provide Maximum cytokine response Murine 3

Return reported Maximum cytokine response Murine. Input compound: Cc1cccc(Nc2ccccc2C(=O)OC[C@H]2O[C@H](O[C@H]3O[C@H](COC(=O)c4ccccc4Nc4cccc(C)c4C)[C@@H](O)[C@H](O)[C@H]3O)[C@H](O)[C@@H](O)[C@@H]2O)c1C [UM1074] 2

// Input: O=C(OC[C@H]1O[C@H](O[C@H]2O[C@H](COC(=O)c3cccc(-c4ccccc4)c3)[C@@H](O)[C@H](O)[C@H]2O)[C@H](O)[C@@H](O)[C@@H]1O)c1cccc(-c2ccccc2)c1 [UM1040] . Output its Maximum cytokine response Murine only. 0.9

Determine from records and report Maximum cytokine response Murine for O=C(CCc1ccc(O)c(-c2ccccc2)c1)OC[C@H]1O[C@H](O[C@H]2O[C@H](COC(=O)CCc3ccc(O)c(-c4ccccc4)c3)[C@@H](O)[C@H](O)[C@H]2O)[C@H](O)[C@@H](O)[C@@H]1O [UM1064] 2.5

Recall and state the measured Maximum cytokine response Murine for Cc1cccc(C)c1C(=O)OC[C@H]1O[C@H](O[C@H]2O[C@H](COC(=O)c3c(C)cccc3C)[C@@H](O)[C@H](O)[C@H]2O)[C@H](O)[C@@H](O)[C@@H]1O [UM1114] . 11

Item COc1cccc(/C=C/C(=O)OC[C@H]2O[C@H](O[C@H]3O[C@H](COC(=O)/C=C/c4cccc(OC)c4OC)[C@@H](O)[C@H](O)[C@H]3O)[C@H](O)[C@@H](O)[C@@H]2O)c1OC [UM1018] : provide Maximum cytokine response Murine 3.5

Consider the compound CC(C)(C)c1cc(CCC(=O)OC[C@H]2O[C@H](O[C@H]3O[C@H](COC(=O)CCc4cc(C(C)(C)C)c(O)c(C(C)(C)C)c4)[C@@H](O)[C@H](O)[C@H]3O)[C@H](O)[C@@H](O)[C@@H]2O)cc(C(C)(C)C)c1O [UM1086] . State its measured Maximum cytokine response Murine. 3

Give the value of Maximum cytokine response Murine reported for the following: COc1ccc(C(=O)OC[C@H]2O[C@H](O[C@H]3O[C@H](COC(=O)c4ccc(OC)cc4C(F)(F)F)[C@@H](O)[C@H](O)[C@H]3O)[C@H](O)[C@@H](O)[C@@H]2O)c(C(F)(F)F)c1 [UM1067] 1.5

Tell me its Maximum cytokine response Murine given CCOc1cc(C(=O)NC[C@H]2O[C@H](O[C@H]3O[C@H](CNC(=O)c4cc(OCC)c(OCC)c(OCC)c4)[C@@H](O)[C@H](O)[C@H]3O)[C@H](O)[C@@H](O)[C@@H]2O)cc(OCC)c1OCC [UM1110] as the entry. 11
